Attribution: ChEMBL document CHEMBL1134408

Recorded IC50, one value per entry.
Test system: Human betaherpesvirus 5
Experiment: Inhibitory activity against human cytomegalovirus (HCMV)
Type: functional
Conditions: read-out: ID50 (the source's name)
Please give a number only; it is taken to be in nM.

// known answers, use as guide
Ask: Give its IC50 value. Item: `COc1cc([C@@H]2c3cc4c(cc3[C@@H](Nc3ccc([N+](=O)[O-])cc3)[C@H]3COC(=O)[C@]23F)OCO4)cc(OC)c1O`
Reply: 1450

Ask: Query `COc1cc([C@@H]2c3cc4c(cc3[C@@H](Nc3ccc(F)cc3)[C@H]3COC(=O)[C@]23F)OCO4)cc(OC)c1O` next
Reply: 970

Ask: Query `COc1cc([C@@H]2c3cc4c(cc3[C@@H](Nc3ccc(F)cc3)[C@H]3COC(=O)[C@H]23)OCO4)cc(OC)c1O` next
Reply: 650

Kindly review the next compound as well.
Ask: Give its IC50 value. Item: COc1cc([C@@H]2c3cc4c(cc3[C@@H](O[C@@H]3O[C@@H]5CO[C@@H](C)O[C@H]5[C@H](O)[C@H]3O)[C@H]3COC(=O)[C@H]23)OCO4)cc(OC)c1O [ETOPOSIDE]
Reply: 1030
